This collection of values is drawn from ChEMBL document CHEMBL4321845.

Entries and their Drug metabolism
- assay: Drug metabolism in human liver microsomes assessed as metabolic rate at 1 uM preincubated for 5 mins before NADPH addition and measured up to 30 mins by LC-MS/MS analysis
- Assay type: ADME, Microsome
- conditions_used: 0.5 h
attribute_measured: Drug metabolism (nmol/min/mg)

COC(=O)N[C@H](C(=O)N1CCC[C@H]1c1ncc(-c2ccc3c(c2)OCC(C)(C)COc2cc(-c4cnc([C@@H]5CCCN5C(=O)[C@@H](NC(=O)OC)C(C)C)[nH]4)ccc2-3)[nH]1)C(C)C    0.02
COC(=O)N[C@H](C(=O)N1CCC[C@H]1c1ncc(-c2ccc3c(ccc4cc(-c5cnc([C@@H]6CCCN6C(=O)[C@@H](NC(=O)OC)C(C)C)[nH]5)sc43)c2)[nH]1)C(C)C    0.04
COC(=O)N[C@H](C(=O)N1CCC[C@H]1c1ncc(-c2ccc3c(c2)OCc2cc(-c4cnc([C@@H]5CCCN5C(=O)[C@@H](NC(=O)OC)C(C)C)[nH]4)sc2-3)[nH]1)C(C)C    0.02
COC(=O)N[C@H](C(=O)N1CCC[C@H]1c1ncc(-c2ccc3c(c2)CCc2cc(-c4cnc([C@@H]5CCCN5C(=O)[C@@H](NC(=O)OC)C(C)C)[nH]4)sc2-3)[nH]1)C(C)C    0.01
COC(=O)N[C@H](C(=O)N1CCC[C@H]1c1nc(Cl)c(-c2ccc3c(c2)OCC(C)(C)COc2cc(-c4[nH]c([C@@H]5CCCN5C(=O)[C@@H](NC(=O)OC)C(C)C)nc4Cl)ccc2-3)[nH]1)C(C)C    0

====

Reported inhibition at 72 h, 3 µM values for the following molecules.
- assay: Cytotoxicity in human HEK293 cells assessed as inhibition of cell growth at 3 uM incubated for 72 hrs by CCK8 assay relative to control
- Assay type: cell-based
- conditions_used: read-out: GI
attribute_measured: inhibition at 72 h, 3 µM (%)

COC(=O)N[C@H](C(=O)N1CCC[C@H]1c1nc(Cl)c(-c2ccc3c(c2)OCC(C)(C)COc2cc(-c4[nH]c([C@@H]5CCCN5C(=O)[C@@H](NC(=O)OC)C(C)C)nc4Cl)ccc2-3)[nH]1)C(C)C    44
COC(=O)N[C@H](C(=O)N1CCC[C@H]1c1ncc(-c2ccc3c(c2)OCC(C)(C)COc2cc(-c4cnc([C@@H]5CCCN5C(=O)[C@@H](NC(=O)OC)C(C)C)[nH]4)ccc2-3)[nH]1)C(C)C    17
COC(=O)N[C@H](C(=O)N1CCC[C@H]1c1ncc(-c2ccc3c(c2)CCc2cc(-c4cnc([C@@H]5CCCN5C(=O)[C@@H](NC(=O)OC)C(C)C)[nH]4)sc2-3)[nH]1)C(C)C    2
COC(=O)N[C@H](C(=O)N1CCC[C@H]1c1ncc(-c2ccc3c(ccc4cc(-c5cnc([C@@H]6CCCN6C(=O)[C@@H](NC(=O)OC)C(C)C)[nH]5)sc43)c2)[nH]1)C(C)C    0
COC(=O)N[C@H](C(=O)N1CCC[C@H]1c1ncc(-c2ccc3c(c2)OCc2cc(-c4cnc([C@@H]5CCCN5C(=O)[C@@H](NC(=O)OC)C(C)C)[nH]4)sc2-3)[nH]1)C(C)C    14

====

- assay: AUC (last) in rat at 100 mg/kg, po measured up to 24 hrs by LC-MS/MS analysis
- Type: ADME, organism-based
- Set-up: dose 100 mg/kg, time 0 - last, route oral
- conditions_used: in vivo
attribute_measured: AUC(0-t) at 24 h (µM·h)

COC(=O)N[C@H](C(=O)N1CCC[C@H]1c1ncc(-c2ccc3c(c2)CCc2cc(-c4cnc([C@@H]5CCCN5C(=O)[C@@H](NC(=O)OC)C(C)C)[nH]4)sc2-3)[nH]1)C(C)C    468
COC(=O)N[C@H](C(=O)N1CCC[C@H]1c1ncc(-c2ccc3c(c2)OCc2cc(-c4cnc([C@@H]5CCCN5C(=O)[C@@H](NC(=O)OC)C(C)C)[nH]4)sc2-3)[nH]1)C(C)C    76
COC(=O)N[C@H](C(=O)N1CCC[C@H]1c1ncc(-c2ccc3c(ccc4cc(-c5cnc([C@@H]6CCCN6C(=O)[C@@H](NC(=O)OC)C(C)C)[nH]5)sc43)c2)[nH]1)C(C)C    127

====

- assay: Protein binding in rat plasma
- Assay type: ADME, cell-free
- conditions_used: read-out: PPB
Measured fraction unbound, listed per entry.
attribute_measured: fraction unbound

COC(=O)N[C@H](C(=O)N1CCC[C@H]1c1nc(Cl)c(-c2ccc3c(c2)OCC(C)(C)COc2cc(-c4[nH]c([C@@H]5CCCN5C(=O)[C@@H](NC(=O)OC)C(C)C)nc4Cl)ccc2-3)[nH]1)C(C)C    < 0.01
COC(=O)N[C@H](C(=O)N1CCC[C@H]1c1ncc(-c2ccc3c(ccc4cc(-c5cnc([C@@H]6CCCN6C(=O)[C@@H](NC(=O)OC)C(C)C)[nH]5)sc43)c2)[nH]1)C(C)C    < 0.01
COC(=O)N[C@H](C(=O)N1CCC[C@H]1c1ncc(-c2ccc3c(c2)CCc2cc(-c4cnc([C@@H]5CCCN5C(=O)[C@@H](NC(=O)OC)C(C)C)[nH]4)sc2-3)[nH]1)C(C)C    < 0.01

====

- assay: AUC (last) in beagle dog at 100 mg/kg, po measured up to 24 hrs by LC-MS/MS analysis
- Type: ADME, organism-based, Canis lupus familiaris
- Parameters: dose 100 mg/kg, route oral, time 0 - last
- conditions_used: in vivo
attribute_measured: AUC(0-t) at 24 h (µM·h)

COC(=O)N[C@H](C(=O)N1CCC[C@H]1c1ncc(-c2ccc3c(ccc4cc(-c5cnc([C@@H]6CCCN6C(=O)[C@@H](NC(=O)OC)C(C)C)[nH]5)sc43)c2)[nH]1)C(C)C    179

====

- assay: Protein binding in human plasma
- Assay type: ADME, cell-free
- conditions_used: read-out: PPB
Listing of entries alongside the reported fraction unbound.
attribute_measured: fraction unbound

COC(=O)N[C@H](C(=O)N1CCC[C@H]1c1nc(Cl)c(-c2ccc3c(c2)OCC(C)(C)COc2cc(-c4[nH]c([C@@H]5CCCN5C(=O)[C@@H](NC(=O)OC)C(C)C)nc4Cl)ccc2-3)[nH]1)C(C)C    < 0.01
COC(=O)N[C@H](C(=O)N1CCC[C@H]1c1ncc(-c2ccc3c(ccc4cc(-c5cnc([C@@H]6CCCN6C(=O)[C@@H](NC(=O)OC)C(C)C)[nH]5)sc43)c2)[nH]1)C(C)C    < 0.01
COC(=O)N[C@H](C(=O)N1CCC[C@H]1c1ncc(-c2ccc3c(c2)CCc2cc(-c4cnc([C@@H]5CCCN5C(=O)[C@@H](NC(=O)OC)C(C)C)[nH]4)sc2-3)[nH]1)C(C)C    < 0.01

====

Overview of reported inhibition at 72 h, 10 µM across a group of compounds:
- assay: Cytotoxicity in human HepG2 cells assessed as inhibition of cell growth at 10 uM incubated for 72 hrs by CCK8 assay relative to control
- Type: cell-based
- conditions_used: read-out: GI
attribute_measured: inhibition at 72 h, 10 µM

COC(=O)N[C@H](C(=O)N1CCC[C@H]1c1ncc(-c2ccc3c(c2)OCc2cc(-c4cnc([C@@H]5CCCN5C(=O)[C@@H](NC(=O)OC)C(C)C)[nH]4)sc2-3)[nH]1)C(C)C    16%
COC(=O)N[C@H](C(=O)N1CCC[C@H]1c1ncc(-c2ccc3c(c2)OCC(C)(C)COc2cc(-c4cnc([C@@H]5CCCN5C(=O)[C@@H](NC(=O)OC)C(C)C)[nH]4)ccc2-3)[nH]1)C(C)C    35%
COC(=O)N[C@H](C(=O)N1CCC[C@H]1c1ncc(-c2ccc3c(ccc4cc(-c5cnc([C@@H]6CCCN6C(=O)[C@@H](NC(=O)OC)C(C)C)[nH]5)sc43)c2)[nH]1)C(C)C    22%
COC(=O)N[C@H](C(=O)N1CCC[C@H]1c1ncc(-c2ccc3c(c2)CCc2cc(-c4cnc([C@@H]5CCCN5C(=O)[C@@H](NC(=O)OC)C(C)C)[nH]4)sc2-3)[nH]1)C(C)C    6%
COC(=O)N[C@H](C(=O)N1CCC[C@H]1c1nc(Cl)c(-c2ccc3c(c2)OCC(C)(C)COc2cc(-c4[nH]c([C@@H]5CCCN5C(=O)[C@@H](NC(=O)OC)C(C)C)nc4Cl)ccc2-3)[nH]1)C(C)C    27%

====

Entries and their Cmax
- assay: Cmax in rat at 10 mg/kg, po measured up to 24 hrs by LC-MS/MS analysis
- Type: ADME, organism-based
- Set-up: dose 10 mg/kg, route oral
- conditions_used: in vivo
attribute_measured: Cmax

COC(=O)N[C@H](C(=O)N1CCC[C@H]1c1ncc(-c2ccc3c(c2)OCc2cc(-c4cnc([C@@H]5CCCN5C(=O)[C@@H](NC(=O)OC)C(C)C)[nH]4)sc2-3)[nH]1)C(C)C    300 to 2000 nM
COC(=O)N[C@H](C(=O)N1CCC[C@H]1c1ncc(-c2ccc3c(ccc4cc(-c5cnc([C@@H]6CCCN6C(=O)[C@@H](NC(=O)OC)C(C)C)[nH]5)sc43)c2)[nH]1)C(C)C    900 to 1000 nM
COC(=O)N[C@H](C(=O)N1CCC[C@H]1c1ncc(-c2ccc3c(c2)CCc2cc(-c4cnc([C@@H]5CCCN5C(=O)[C@@H](NC(=O)OC)C(C)C)[nH]4)sc2-3)[nH]1)C(C)C    1600 to 6000 nM
